Exercise: for every item that follows, state its recorded concentration at 1 day.
Test: Multiple Marker Experiment 2: urine samples, simulated non-adherence (one marker dose skipped per subject), LC-MS/MS
Settings: human, in vivo
Numbers only, in ng/mL.

{"COMPOUND": "CN(C)C(=O)C(CCN1CCC(O)(c2ccc(Cl)cc2)CC1)(c1ccccc1)c1ccccc1 [Loperamide]", "OBS_VALUE": 0}

Next:
stdin: Give the reported concentration at 1 day for this compound. "COc1ccc2c(c1)[C@]13CCCC[C@@H]1[C@H](C2)N(C)CC3"
stdout: 0

* * *

Exercise: for every item that follows, state its recorded concentration at 3 day.
Assay: clinical
Conditions: human, in vivo, Subject B, Urine Results
Numbers only, in ng/mL.

Consider the worked cases shown below.
{"COMPOUND": "Cc1cc2nc3c(=O)[nH]c(=O)nc-3n(C[C@H](O)[C@H](O)[C@H](O)CO)c2cc1C", "concentration at 3 day / ng/mL": 3040}
{"COMPOUND": "NC(N)=Nc1nc(CSCCC(N)=NS(N)(=O)=O)cs1", "concentration at 3 day / ng/mL": 0}
{"COMPOUND": "CN(C)CCOC(c1ccccc1)c1ccccc1 [Diphenhydramine]", "concentration at 3 day / ng/mL": 0}

Next:
stdin: Give the reported concentration at 3 day for this compound. "CNC(=C[N+](=O)[O-])NCCSCc1ccc(CN(C)C)o1"
stdout: 456

* * *

Assay: clinical
Settings: human, in vivo, Subject A, Urine Results
Exercise: for every item that follows, state its recorded concentration at 4 day.
One number for each entry, in ng/mL.

{"COMPOUND": "CN(C)CCOC(c1ccccc1)c1ccccc1 [Diphenhydramine]", "concentration at 4 day (ng/mL)": 0}

Next:
stdin: Give the reported concentration at 4 day for this compound. "NC(N)=Nc1nc(CSCCC(N)=NS(N)(=O)=O)cs1"
stdout: 0

* * *

Experiment: clinical
Conditions: human, in vivo, Subject B, Urine Results
MEASUREMENT_NAME: concentration at 2 day (ng/mL)
Numbers only, in ng/mL.

{"COMPOUND": "CN(C)CCOC(c1ccccc1)c1ccccc1 [Diphenhydramine]", "UNIT_STRING": "ng/mL", "concentration at 2 day": 0}

Next:
stdin: Give the reported concentration at 2 day for this compound. "NC(N)=Nc1nc(CSCCC(N)=NS(N)(=O)=O)cs1"
stdout: 0

* * *

Assay: clinical
Settings: human, in vivo, Average of Urine Samples
MEASUREMENT_NAME: concentration at 4 day (ng/mL)
Numbers only, in ng/mL.

Consider the worked cases shown below.
{"COMPOUND": "CN(C)CCOC(c1ccccc1)c1ccccc1 [Diphenhydramine]", "UNIT_STRING": "ng/mL", "concentration at 4 day": 0}
{"COMPOUND": "O=C1O[C@H]([C@@H](O)CO)C(O)=C1O [Ascorbic Acid]", "UNIT_STRING": "ng/mL", "concentration at 4 day": 2660}
{"COMPOUND": "CNC(=C[N+](=O)[O-])NCCSCc1ccc(CN(C)C)o1 [Ranitidine]", "UNIT_STRING": "ng/mL", "concentration at 4 day": 56.5}
{"COMPOUND": "NC(N)=Nc1nc(CSCCC(N)=NS(N)(=O)=O)cs1 [Famotidine]", "UNIT_STRING": "ng/mL", "concentration at 4 day": 0}

Next:
stdin: Give the reported concentration at 4 day for this compound. Cc1cc2nc3c(=O)[nH]c(=O)nc-3n(C[C@H](O)[C@H](O)[C@H](O)CO)c2cc1C [Riboflavin]
stdout: 5130

* * *

Assay: clinical
Details: human, in vivo, Subject A, Urine Results
MEASUREMENT_NAME: concentration at 8 day
The reply must contain the numeric value and, after it, the unit.

stdin: Give the reported concentration at 8 day for this molecule. CNC(=C[N+](=O)[O-])NCCSCc1ccc(CN(C)C)o1 [Ranitidine]
stdout: 1.16 ng/mL

* * *

Test: clinical
Conditions: human, in vivo, Subject A, Urine Results
Exercise: for every item that follows, state its recorded concentration at 2 day.
Answers are plain numbers, in ng/mL.

Consider the worked cases shown below.
{"COMPOUND": "CN(C)CCOC(c1ccccc1)c1ccccc1 [Diphenhydramine]", "MEASUREMENT_NAME": "concentration at 2 day", "OBS_VALUE": 0}
{"COMPOUND": "CNC(=C[N+](=O)[O-])NCCSCc1ccc(CN(C)C)o1 [Ranitidine]", "MEASUREMENT_NAME": "concentration at 2 day", "OBS_VALUE": 801}

Next:
stdin: Give the reported concentration at 2 day for this compound. NC(N)=Nc1nc(CSCCC(N)=NS(N)(=O)=O)cs1 [Famotidine]
stdout: 0

* * *

Experiment: clinical
Conditions: human, in vivo, Average of Urine Samples
MEASUREMENT_NAME: concentration at 1 day (ng/mL)
Numbers only, in ng/mL.

Consider the worked cases shown below.
{"MOLECULE": "O=C1O[C@H]([C@@H](O)CO)C(O)=C1O", "UNIT_STRING": "ng/mL", "OBS_VALUE": 1960}
{"MOLECULE": "CN(C)CCOC(c1ccccc1)c1ccccc1 [Diphenhydramine]", "UNIT_STRING": "ng/mL", "OBS_VALUE": 0}
{"MOLECULE": "Cc1cc2nc3c(=O)[nH]c(=O)nc-3n(C[C@H](O)[C@H](O)[C@H](O)CO)c2cc1C", "UNIT_STRING": "ng/mL", "OBS_VALUE": 2240}
{"MOLECULE": "NC(N)=Nc1nc(CSCCC(N)=NS(N)(=O)=O)cs1", "UNIT_STRING": "ng/mL", "OBS_VALUE": 0}

stdin: Give the reported concentration at 1 day for this molecule. "CNC(=C[N+](=O)[O-])NCCSCc1ccc(CN(C)C)o1"
stdout: 0

* * *

Assay: clinical
Details: human, in vivo, 6 day
Exercise: for every item that follows, state its recorded Subject D, Urine Results.
Give bare numbers, in ng/m.

// each listed compound needs a value for Subject D, Urine Results
1. CNC(=C[N+](=O)[O-])NCCSCc1ccc(CN(C)C)o1
2. CN(C)CCOC(c1ccccc1)c1ccccc1 [Diphenhydramine]

stdout:
22.6
585000

// each listed compound needs a value for Subject D, Urine Results
1. O=C1O[C@H]([C@@H](O)CO)C(O)=C1O
2. Cc1cc2nc3c(=O)[nH]c(=O)nc-3n(C[C@H](O)[C@H](O)[C@H](O)CO)c2cc1C
3. NC(N)=Nc1nc(CSCCC(N)=NS(N)(=O)=O)cs1

stdout:
[3024, 2120, 260]

* * *

Exercise: for every item that follows, state its recorded concentration at 3 day.
Assay: clinical
Conditions: human, in vivo, Subject A, Urine Results
Answers are plain numbers, in ng/mL.

{"COMPOUND": "NC(N)=Nc1nc(CSCCC(N)=NS(N)(=O)=O)cs1 [Famotidine]", "concentration at 3 day, ng/mL": 0}

Next:
stdin: Give the reported concentration at 3 day for this compound. CN(C)CCOC(c1ccccc1)c1ccccc1 [Diphenhydramine]
stdout: 0

* * *

Exercise: for every item that follows, state its recorded log10(concentration at 7 day).
Experiment: clinical
Settings: human, in vivo, Average of Urine Samples
A value of 2 here means concentration at 7 day of 100 in ng/mL, since values are log10.

Consider the worked cases shown below.
{"MOLECULE": "CNC(=C[N+](=O)[O-])NCCSCc1ccc(CN(C)C)o1", "log10(concentration at 7 day)": 1.14}
{"MOLECULE": "NC(N)=Nc1nc(CSCCC(N)=NS(N)(=O)=O)cs1", "log10(concentration at 7 day)": 1.81}
{"MOLECULE": "Cc1cc2nc3c(=O)[nH]c(=O)nc-3n(C[C@H](O)[C@H](O)[C@H](O)CO)c2cc1C", "log10(concentration at 7 day)": 3.49}

// each listed molecule needs a value for log10(concentration at 7 day)
1. CN(C)CCOC(c1ccccc1)c1ccccc1 [Diphenhydramine]
2. O=C1O[C@H]([C@@H](O)CO)C(O)=C1O

stdout:
1. 5.21
2. 3.41

* * *

Assay: clinical
Conditions: human, in vivo, 8 day
MEASUREMENT_NAME: Subject D, Urine Results (ng/m)
Answers are plain numbers, in ng/m.

Consider the worked cases shown below.
{"COMPOUND": "NC(N)=Nc1nc(CSCCC(N)=NS(N)(=O)=O)cs1", "UNIT_STRING": "ng/m", "Subject D, Urine Results": 19.4}
{"COMPOUND": "CN(C)CCOC(c1ccccc1)c1ccccc1 [Diphenhydramine]", "UNIT_STRING": "ng/m", "Subject D, Urine Results": 54100}
{"COMPOUND": "O=C1O[C@H]([C@@H](O)CO)C(O)=C1O", "UNIT_STRING": "ng/m", "Subject D, Urine Results": 2894}
{"COMPOUND": "Cc1cc2nc3c(=O)[nH]c(=O)nc-3n(C[C@H](O)[C@H](O)[C@H](O)CO)c2cc1C", "UNIT_STRING": "ng/m", "Subject D, Urine Results": 3310}

Next:
stdin: Give the reported Subject D, Urine Results for this compound. "CNC(=C[N+](=O)[O-])NCCSCc1ccc(CN(C)C)o1"
stdout: 12.1

Source of measurements: patent US10890591B2
